Test system: SK-OV-3 ovarian
Assay: NCI-60 one-dose screen, 48 h
Conditions: 10 µM unless noted
Compounds without any hit were thinned out: in the full panel of roughly 83,000, 20% have a hit. Calls of active or inactive are those of the source. Rule for the calls: active = growth percent below 10; inactive = the rest.
Response enum: active, inactive

Consider the worked cases shown below.
1) Cc1ccn2cc(Cc3cc(=O)oc4c3ccc3ccccc34)c(=O)nc2c1
inactive
2) O=C1/C(=C/c2cccc3cnccc23)Cc2cc(F)ccc21
inactive
3) CCC1(C(N)=O)CC2C=CC1CC2 (stereo not given)
inactive

[ask] What is the recorded call for this compound in the test? Cc1nssc1=S
[reply] inactive

[ask] What is the recorded call for this compound in the test? CC(C)(C)C(=O)/C=c1/[nH]c(=O)/c(=C/c2ccccc2O)s1
[reply] inactive

[ask] What is the recorded call for this compound in the test? Nc1nc(=S)ss1
[reply] inactive

[ask] What is the recorded call for this compound in the test? CCNc1ncnc2n[nH]nc12
[reply] inactive

[ask] What is the recorded call for this compound in the test? CC(=O)c1cc2c(N)c(C(=O)Nc3cccc(Cl)c3)sc2nc1C
[reply] inactive

[ask] What is the recorded call for this compound in the test? CCn1c(C)nc([N+](=O)[O-])c1Sc1nc(N)nc2nc[nH]c12
[reply] active

[ask] What is the recorded call for this compound in the test? O=C(NCCNc1nccc(-c2c(-c3cccc(O)c3)nc3sccn23)n1)c1ccccc1O
[reply] inactive

---

Test system: RPMI-8226 leukemia
Assay: NCI-60 one-dose screen, 48 h
Details: 10 µM unless noted
The panel holds about 83,000 compounds, 20% with a hit somewhere; the sample as a whole holds those more often. The source made the active and inactive calls. How the source made its calls: active means growth percent below 10; inactive means the rest.
Response enum: active, inactive

Consider the worked cases shown below.
1) CCc1c(C)c2cc3nc(NCc4ccccc4)oc3c(C)c2oc1=O
inactive
2) O=C1COc2ccccc2C(=O)N1CCCCN1CCCCC1
inactive
3) CC(=O)N1N=C2N(Cc3ccccc3)C(=O)c3c(sc4c3CCCC4)N2C1c1cn(-c2ccccc2)nc1-c1ccc(Cl)cc1 (stereo not given)
inactive
4) Cc1cc2c(cc1C)N(C(=O)CCl)CCN2C(=O)CCl
active

Kindly review the next compound as well.
[ask] What is the recorded call for this compound in the test? O=C(Nc1ccc(-n2cc(-c3ccncc3)c(-c3ccc(O)c(Cl)c3)n2)cc1)Nc1cccc(Cl)c1Cl
[reply] inactive

---

System: NCI-H226 lung
Assay: NCI-60 one-dose screen, 48 h (100 = growth as untreated, 0 = no growth, -100 = all killed)
Details: 10 µM unless noted
The panel holds about 83,000 compounds, 20% with a hit somewhere; the sample as a whole holds those more often.
Property measured: growth (%)
Give the quantity in %, number only.

[ask] Give the reported growth for CC(/C=C/C=C(\C)[C@H](O)[C@H](C)C(=O)O[C@H]1C[C@H](C)C=C2C=C[C@@]3(C)O[C@@H](O)CC(=O)[C@]3(C)[C@H]21)=C\C=C\C(=O)O (system: NCI-H226 lung).
[reply] -3.28

[ask] Give the reported growth for CNCCCOc1c(Br)cc(CCNC(=O)/C(Cc2ccc(OC)c(Br)c2)=N/O)cc1Br (system: NCI-H226 lung).
[reply] 77.3

[ask] Give the reported growth for CC1(C)CC(=O)C2=C(C1)OC1=C(C(=O)CC(C)(C)C1)C2c1ccc(OCc2cn(-c3ccc(F)cc3F)nn2)cc1 (system: NCI-H226 lung).
[reply] 88.9

[ask] Give the reported growth for C#CCn1c(-c2cc(OC)c(OC)cc2Br)nc(-c2ccccc2)c1-c1ccccc1 (system: NCI-H226 lung).
[reply] 66

[ask] Give the reported growth for NC(=S)NNC1CCCCC1 (system: NCI-H226 lung).
[reply] 91.1

---

Tested on: BT-549 breast
Experiment: NCI-60 one-dose screen, 48 h (100 = growth as untreated, 0 = no growth, -100 = all killed)
Conditions: 10 µM unless noted
Procedure: Growth inhibition of the BT-549 human tumor cell line is measured as a screen for anti-cancer activity. Cells are grown in 96 well plates and exposed to the test compound for 48 hours. Compounds are tested at a single concentration, which is 10^-5 M for most compounds. The reported endpoint is percent growth (GI% or GIPRCNT), where numbers from 0 - 100% represent growth inhibition, and numbers from -100% - 0 represent cell death. For example, a value of 40 represents 60% growth inhibition. […]
This is part of a sample that, as a whole, favours compounds with a hit. Of some 83,000 tested, about 20% had one in any assay.
Property measured: growth (%)
Give the quantity in %, number only.

Examples with their reported growth follow.
1. COC(=O)c1oc2c(C(C)=O)c(OCCN3CCCCC3)ccc2c1C
130
2. COC(=O)/C=C/C(=O)c1cc(C)cc(C)c1O
103
3. O=C(NOC1OC(CO)C(O)C(O)C1O)Nc1ccccc1 (stereo not drawn)
110
4. O=C(Nc1ccc(-n2ccc3c(NC(=O)c4ccccc4)nccc32)cc1)Nc1cccc(C(F)(F)F)c1
74
5. Clc1ccc2c(NCCNc3nc(Cl)nc4ccccc34)ccnc2c1
-65.6

[ask] Look up growth for this compound: CCC(CC(C)C)Nc1ccc(NC(CC)CC(C)C)cc1 (stereo not drawn)
[reply] 97.1

[ask] Look up growth for this compound: CCCCn1c(-c2cccc(OC)c2)nc2cc(OC)c(OC)cc2c1=O
[reply] 283

[ask] Look up growth for this compound: O=C(Nc1ccc(-n2cc(-c3ccncc3)c(-c3ccc(O)c(Cl)c3)n2)cc1)Nc1cccc(Cl)c1Cl
[reply] 59

---

Test system: SF-295 CNS
Experiment: NCI-60 one-dose screen, 48 h (100 = growth as untreated, 0 = no growth, -100 = all killed)
Settings: 10 µM unless noted
Compounds without any hit were thinned out: in the full panel of roughly 83,000, 20% have a hit.
Measured growth, listed per entry for reference.
Give the quantity in %, number only.

Examples with their reported growth follow.
1. C#C[C@@]1(O)[C@@H](CO)O[C@@H](n2cc(Br)c3c(Cl)ccnc32)[C@@H]1O
26.6
2. CCNc1cc(S(=O)(=O)O)ccc1C
101
3. COc1ccc2c(c1)nnc1c3cccnc3[nH]c21
39.8
4. CN1C(=O)C2(NN=C(c3cccc4ccccc34)S2)c2ccccc21 (stereo not given)
29.7
5. CCc1c(C)c2cc(-n3c(-c4ccc(OC)cc4)csc3=N)c(O)c(C)c2oc1=O
20.8

[ask] Look up growth for this compound: CN(C)c1ncc(C#Cc2c(F)cccc2F)c2ccccc12
[reply] 102

[ask] Look up growth for this compound: C=C1C(=O)O[C@H]2[C@H]1CC/C(COC(=O)c1ccc3ccccc3c1)=C\CC[C@@]1(C)O[C@@H]21
[reply] 43.1

[ask] Look up growth for this compound: Nc1nccc(=S)[nH]1
[reply] 103

[ask] Look up growth for this compound: S=C=NP1(N=C=S)=NP(N=C=S)(N=C=S)=NP(N=C=S)(N=C=S)=NP(N=C=S)(N=C=S)=N1 (stereo not given)
[reply] 97.8

[ask] Look up growth for this compound: CCOC(=O)CSc1nnc(-c2cc3c([nH]c4ccccc43)c(-c3cccc(O)c3)n2)n1-c1ccc(C)cc1
[reply] 99.9

[ask] Look up growth for this compound: Cc1cc[n+](CCCC[n+]2ccc(C)cc2)cc1
[reply] 103

[ask] Look up growth for this compound: Cc1cn(C2CC(N=[N+]=[N-])C(COP(=O)(O)OP(=O)(O)OP(=O)(O)O)O2)c(=O)[nH]c1=O (stereo not given)
[reply] 80.7

[ask] Look up growth for this compound: S=c1[nH]nc(Cn2c3ccccc3c3ccncc32)o1
[reply] 108

[ask] Look up growth for this compound: NS(=O)(=O)c1ccc(Nc2nc(O)c(/C=C3\C=Nc4ccccc43)s2)cc1
[reply] 102

---

Measured growth, listed per entry for reference.
Test system: SK-MEL-28 melanoma
Test: NCI-60 one-dose screen, 48 h (100 = growth as untreated, 0 = no growth, -100 = all killed)
Conditions: 10 µM unless noted
About 83,000 compounds went through this panel and 20% of them were active in at least one assay; those are over-represented in the sample as a whole.
Give the quantity in %, number only.

1. COc1ccc(-c2ccc(NC(=O)Nc3ccc(Cl)c(C(F)(F)F)c3)c(C)n2)cc1
71.4
2. CCC(C)Nc1ccc(N)cc1 (stereo unspecified)
71.6
3. c1ccc2c(c1)Oc1cccnc1-n1nccc1-2
102
4. ClC1c2ccccc2CCc2ccccc21
112
5. Cc1ccc[n+](CC(=O)c2cccc3ccccc23)c1
105

[ask] Look up growth for this compound: COc1ccc2c(c1)OC(N)=C(C#N)C2c1ccc(F)c(F)c1 (stereo unspecified)
[reply] 68.2

---

Tested on: ACHN renal
Experiment: NCI-60 one-dose screen, 48 h (100 = growth as untreated, 0 = no growth, -100 = all killed)
Settings: 10 µM unless noted
The panel holds about 83,000 compounds, 20% with a hit somewhere; the sample as a whole holds those more often. Active and inactive are the calls of the source. Rule for the calls: active = growth percent below 10; inactive = the rest.
Property measured: growth

1. COc1cc(NC(C)CCCN2C(=O)c3ccccc3C2=O)c2nc(C)ccc2c1OC (stereo not drawn)
99.5% (inactive)

[ask] Look up growth for this compound: COC(=O)c1oc2c(C(C)=O)c(OCCN3CCCCC3)ccc2c1C
[reply] 108% (inactive)

[ask] Look up growth for this compound: Nc1ncc(-c2ccc3ncnc(Nc4ccc(F)c(Cl)c4)c3c2)cn1
[reply] -74.2% (active)

[ask] Look up growth for this compound: O=C(Nc1ccc(-n2ccc3c(NC(=O)c4ccccc4)ncnc32)cc1)c1cccc(C(F)(F)F)c1
[reply] 34% (inactive)
